- studyTarget: S protein of the novel coronavirus SARS-CoV-2 (SARS-CoV-2, UniProt P0DTC2 14-1273)
- testDescription: cell-based or functional assay
IC50 for neutralizing SARS-CoV-2 pseudovirus (Huh-7 cells, luciferase) for assorted binders

| binder | readoutValue |
| --- | --- |
| ABU-351 (antibody, V domains shown) VH: EVQLVESGGGLVQPGGSLRLSCAASGFTVSRNYMSWVRQAPGKGLEWVSVIYSGGTTHYADSVKGRFTISRHNSKNTLYLQMNSLRAEDTAVYYCARDLVVYGMDVWGQGTTVTVSS VL: DIQLTQSPSFLSASVGDRVTITCRASQGISSYLAWYQQKPGKAPKLLIYAASTLQSGVPSSFSGSGSGTEFTLTISSLQPEDFATYYCQQLNSYPLTFGGGTKVEIK | < 0.1 mg/L |
| ABU-362 (antibody, V domains shown) VH: EVQLVESGGGLVQPGGSLRLSCAASGFTVSRNYMSWVRQAPGKGLEWVSVIYSGGTTHYADSVKGRFTISRHNSKNTLYLQMNSLRAEDTAVYYCARDLVVYGMDVWGQGTTVTVSS VL: DIQLTQSPSFLSASVGDRVTITCRASQGISSYLAWYQQKPGKAPKLLIYAASTLQSGVPSSFSGSGSGTEFTLTISSLQPEDFATYYCQQLNSYPLTFGGGTKVEIK | < 0.5 mg/L |

Report measured IC50 for neutralizing SARS-CoV-2 pseudovirus (Huh-7 cells, luciferase); entry is ABU-375 (antibody, V domains shown) VH: EVQLVESGGGLVQPGGSLRLSCAASGLTVSSNYMSWVRQAPGKGLEWVSVIYSGGSTFYADSVKGRFTISRDNSKNTLYLQMNSVRAEDTAVYYCARLPYGMDVWGQGTTVTVSS VL: DIQMTQSPSSLSASVGDRVTITCQASQDVSKYLNWYQQKPGKAPKLLIHDASNLQTGVPSRFSGGGSGTDFTFTISSLQPEDIATYYCQQYDNLPVTFGGGTKVEIK
< 0.1 mg/L

The reported numbers originate from patent US20230183322A1.
